Data origin: PubChem BioAssay (NCI)

- System: ACHN renal
- protocol: NCI-60 one-dose screen, 48 h
- assaySetup: 10 µM unless noted
Compounds without any hit were thinned out: in the full panel of roughly 83,000, 20% have a hit. Activity calls are given as the source filed them. Rule for the calls: active = growth percent below 10; inactive = the rest.
Pick from 1 (yes) for active, 0 (no) for inactive when you respond.

Some solved entries appear below for comparison.
| compound | targetOrTestSystem | classAssignment |
| --- | --- | --- |
| Cc1ccc(/C=C/C(=O)c2ccc(NC(=O)CSc3nc4c([nH]3)c(=O)n(C)c(=O)n4C)cc2)c(C)c1 | ACHN renal | 0 (no) |
| COc1ccc2nc3cc(Cl)ccc3c(NCCN)c2c1 | ACHN renal | 1 (yes) |
| CN(C)Cc1ccc(C(=O)Nc2ccc3ncnc(Nc4ccc(Oc5cccc(F)c5)c(Cl)c4)c3c2)cc1 | ACHN renal | 1 (yes) |
| COc1ccc(C(c2cc(OC)c(OC)c(OC)c2)N2CCCC2)cc1 (centres undefined) | ACHN renal | 0 (no) |
| CNC(=O)c1cc(Oc2ccc3nc(NC(=O)Nc4ccc(Cl)c(Cl)c4)sc3c2)ccn1 | ACHN renal | 0 (no) |
| CC/C=C1/C(=O)C=C[C@@H]1C/C=C\CCCC(=O)OC | ACHN renal | 0 (no) |
| O=C1N[C@@H]2[C@@H](O)[C@@H](O)[C@H](O)C[C@H]2c2cc3c(c(O)c21)OCCO3 | ACHN renal | 1 (yes) |
| Cc1ccc(/C=C2\CN(C(=O)C(Cl)Cl)C/C(=C\c3ccc(C)cc3)C2=O)cc1 | ACHN renal | 1 (yes) |

Attention now shifts to the item below.
### Prompt Status in this test for COc1cc(C2=NN(C(C)=O)C(c3ccc(N(C)C)cc3)C2)cc(OC)c1OC (centres undefined) ?
### Response 0 (no)

###

- Test system: SK-MEL-2 melanoma
- protocol: NCI-60 one-dose screen, 48 h
- assaySetup: 10 µM unless noted
- Experimental: Growth inhibition of the SK-MEL-2 human tumor cell line is measured as a screen for anti-cancer activity. Cells are grown in 96 well plates and exposed to the test compound for 48 hours. Compounds are tested at a single concentration, which is 10^-5 M for most compounds. The reported endpoint is percent growth (GI% or GIPRCNT), where numbers from 0 - 100% represent growth inhibition, and numbers from -100% - 0 represent cell death. For example, a value of 40 represents 60% growth inhibition. […]
Compounds without any hit were thinned out: in the full panel of roughly 83,000, 20% have a hit. Activity calls are given as the source filed them. Rule for the calls: active = growth percent below 10; inactive = the rest.
Pick from 1.0 = active, 0.0 = inactive when you respond.

| compound | targetOrTestSystem | classAssignment |
| --- | --- | --- |
| Nc1ncnc2c1c(-c1ccc(Oc3ccccc3)cc1)nn2CC1SSCC1O (stereo not given) | SK-MEL-2 melanoma | 0.0 |

### Prompt Status in this test for `O=C(NCc1ccccc1O)c1cccc2ccccc12` ?
### Response 0.0

### Prompt And then `COc1ccc(C/C(C)=C(/c2ccc(OCCN3CCCCCC3)cc2)c2ccc(OC(=O)NCc3ccccc3)cc2)cc1` , what is it?
### Response 0.0

### Prompt And then CCCCCCC(CCCC)COC(=O)c1ccc(Cl)cc1 (stereo not given) , what is it?
### Response 0.0

### Prompt And then `CCC/C(=N\NC(N)=O)C(OC)OC` , what is it?
### Response 0.0

### Prompt And then `CCCCC(=O)Nc1ncc(Cc2ccccc2Cl)s1` , what is it?
### Response 0.0
